Reference source: paper PMC9694334

tested on: AGS cells; assay: Cell viability assay (MTS) in AGS cells; assay type: cell-based; settings: 10 μM, mean, n = 3
Give % Inhibition of Cell Viability at 10 μM AGS for every item shown.

1. N#Cc1c2c3cccn3c(-c3ccc(Cl)cc3)nc2n2ccccc12    31.0%
2. COC(=O)c1ccc(-c2nc3c(c(C#N)c4ccccn43)c3cccn23)cc1    <25%

Batch of 3 compounds: report % Inhibition of Cell Viability at 10 μM AGS for each.
1. N#Cc1c2c3cccn3c(-c3ccco3)nc2n2ccccc12
2. N#Cc1c2c3cccn3c(-c3ccc4ccccc4c3)nc2n2ccccc12
3. N#Cc1c2c3cccn3cnc2n2ccccc12

1. <25%
2. <25%
3. <25%

###

Give % Inhibition of Cell Viability at 10 μM AGS for every item shown.
system: AGS cells; test: Cell viability assay (MTS) in AGS cells; format: cell-based; settings: 10 μM, mean, n = 3

1. COc1ccc(-c2nc3c(c(C#N)c4ccccn43)c3cccn23)cc1    <25%

Batch of 6 compounds: report % Inhibition of Cell Viability at 10 μM AGS for each.
1. N#Cc1c2c3[nH]c4ccccc4c3c(-c3ccc(Br)cc3)nc2n2ccccc12 [Compound 10c]
2. N#Cc1c2c3cccn3c(-c3ccc(Br)cc3)nc2n2ccccc12
3. N#Cc1c2c3cccn3c(-c3ccccn3)nc2n2ccccc12
4. N#Cc1c2c3cccn3c(-c3cc4ccccc4[nH]3)nc2n2ccccc12
5. COc1ccc(-c2nc3c(c(C#N)c4ccccn43)c3cccn23)cc1OC
6. N#Cc1c2c3[nH]c4ccccc4c3c(-c3ccccc3)nc2n2ccccc12 [Compound 10a]

1: <25%; 2: <25%; 3: <25%; 4: <25%; 5: 56.0%; 6: 48.4%

Entry COc1ccc(-c2nc3c(c(C#N)c4ccccn43)c3[nH]c4ccccc4c23)cc1 [Compound 10b] , system AGS cells: what % Inhibition of Cell Viability at 10 μM AGS was measured?
<25%

###

test system: A549 cells; test: Cell viability assay (MTS) in A549 cells; assay type: cell-based; conditions: 10 μM, mean, n = 3
Give % Inhibition of Cell Viability at 10 μM A549 for every item shown.

Examples from the recorded data:
1. COC(=O)c1ccc(-c2nc3c(c(C#N)c4ccccn43)c3cccn23)cc1    <25%
2. N#Cc1c2c3cccn3c(-c3ccco3)nc2n2ccccc12    <25%
3. COc1cc(OC)cc(-c2nc3c(c(C#N)c4ccccn43)c3cccn23)c1    <25%
4. N#Cc1c2c3cccn3c(-c3ccccc3)nc2n2ccccc12    <25%
5. N#Cc1c2c3cccn3c(-c3cccc4ccccc34)nc2n2ccccc12    <25%

Batch of 4 compounds: report % Inhibition of Cell Viability at 10 μM A549 for each.
1. COc1ccc(-c2nc3c(c(C#N)c4ccccn43)c3[nH]c4ccccc4c23)cc1 [Compound 10b]
2. N#Cc1c2c3cccn3cnc2n2ccccc12
3. N#Cc1c2c3cccn3c(-c3ccc4ccccc4c3)nc2n2ccccc12
4. N#Cc1c2c3[nH]c4ccccc4c3c(-c3ccc(Br)cc3)nc2n2ccccc12 [Compound 10c]

<25%
<25%
<25%
<25%
